Let's look at some compounds and their measured thermal shift delta Tm.
- System: LOC_OS03G50450-cb001;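 note: purified Escherichia coli-expressed rice kinase domain construct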
- measurement_protocol: thermal shift delta Tm vs DMSO control; higher = stronger stabilization (binding)
- protocol_conditions: 12.5 µM; protein concentration 2 µM
Structures can show the parent of a compound that is named as a salt.
Number only, in °C; omit the unit.

{"columns": ["compound", "tgt", "thermal shift delta Tm, °C"],
 "data": [
  ["NC[C@@](O)(c1ccc(Cl)cc1)c1ccc(-c2cn[nH]c2)cc1", "LOC_OS03G50450-cb001", 0.8],
  ["CCn1c(=O)c(-c2cc[nH]n2)cc2c(C)nc(N)nc21", "LOC_OS03G50450-cb001", 0.05],
  ["Cc1cnc(NC(=O)Nc2cc(Br)c(C)cc2OC[C@@H]2CNCCO2)cn1", "LOC_OS03G50450-cb001", 0.51],
  ["CC#CC(=O)N1CC[C@@H](n2c(=O)n(-c3ccc(Oc4ccccc4)cc3)c3c(N)ncnc32)C1 [ONO-4059 (GS-4059) hydrochloride]", "LOC_OS03G50450-cb001", 0.4],
  ["NC(=O)Nc1cc(-c2cccc(F)c2)sc1C(=O)N[C@H]1CCCNC1", "LOC_OS03G50450-cb001", 3.98]
]}

# thermal shift delta Tm (compound: `Cc1[nH]c(/C=C2\C(=O)Nc3ccc(S(=O)(=O)Cc4c(Cl)cccc4Cl)cc32)c(C)c1C(=O)N1CCC[C@@H]1CN1CCCC1` ) is 0.47

// recorded thermal shift delta Tm for `O=C(NOCC1CC1)c1ccc(F)c(F)c1Nc1ccc(I)cc1Cl` : 0.46

The compound listed as `NC(=O)c1ccc2nc(-c3ccc(Oc4ccc(Cl)cc4)cc3)[nH]c2c1` has a reported thermal shift delta Tm of 0.23

Short answer for `Cc1ccc(NC(=O)c2cccc(C(C)(C)C#N)c2)cc1Nc1ccc2ncn(C)c(=O)c2c1` : thermal shift delta Tm was 0.1

What the record says about `CS(=O)(=O)CCNCc1ccc(-c2ccc3ncnc(Nc4ccc(OCc5cccc(F)c5)c(Cl)c4)c3c2)o1` : thermal shift delta Tm is 0.01

Looking up `O=C1NC(=O)/C(=C/c2cccc(C(F)(F)F)c2)S1` , I found its thermal shift delta Tm recorded as 0.29

So, `Cc1cc2c(F)c(Oc3ncnn4cc(OC[C@@H](C)OC(=O)[C@H](C)N)c(C)c34)ccc2[nH]1` ? Its thermal shift delta Tm was -0.29

thermal shift delta Tm measured on `Cc1ccc(Nc2nccc(N(C)c3ccc4c(C)n(C)nc4c3)n2)cc1S(N)(=O)=O` = 0.21

Notebook: `Cc1ccc(-n2nc(C(C)(C)C)cc2NC(=O)NCc2cc(F)ccc2Oc2ccc3c(cnn3CCO)c2)cc1` , thermal shift delta Tm read as 0.02

Per the record, `FC(F)(F)c1ccc(/C=C/c2nc(COc3ccc(CCCCn4ccnn4)cc3)co2)cc1` has thermal shift delta Tm of 0.76

The reported thermal shift delta Tm of the compound `Nc1ccc(-c2ccc3ncc4ccc(=O)n(-c5cccc(C(F)(F)F)c5)c4c3c2)cn1` was 0.37

Reported thermal shift delta Tm for `COc1cc(Nc2ncc(F)c(Nc3ccc4c(n3)NC(=O)C(C)(C)O4)n2)cc(OC)c1OC` was 10.5

Documented thermal shift delta Tm of `CN1CCC(Nc2nc(Nc3ccc(Oc4ccccc4)cc3)c3c(=O)[nH]cc(Br)c3n2)CC1` : 1.67

FYI, the data here is from the supplement of paper PMC9694430.
